Value source: ChEMBL document CHEMBL3994579

Quick list: MIC per entry.
Test system: Staphylococcus epidermidis
Experiment: Antibacterial activity against penicillin-resistant Staphylococcus epidermidis clinical isolate by broth microdilution method
Format: functional
A number alone suffices; assume µg/mL.

Worked cases, MIC given:
Smiles Code	MIC, µg/mL
CCCCc1ccc(NC(=O)O[C@H]2[C@H](O[C@@H]3[C@@H](C)[C@H](O)[C@@H](C)C(=O)O[C@H](CC)[C@@]4(C)OC(=O)O[C@@H]4[C@@H](C)N(C)C[C@H](C)C[C@@]3(C)O)O[C@H](C)C[C@@H]2N(C)C)cc1	64
CC[C@H]1OC(=O)[C@H](C)[C@@H](OC(=O)Nc2cccc(C)c2)[C@H](C)[C@@H](O[C@@H]2O[C@H](C)C[C@H](N(C)C)[C@H]2O)[C@](C)(O)C[C@@H](C)CN(C)[C@H](C)[C@H]2OC(=O)O[C@@]21C	4
CC[C@H]1OC(=O)[C@H](C)[C@@H](OC(=O)N(C)c2ccccc2)[C@H](C)[C@@H](O[C@@H]2O[C@H](C)C[C@H](N(C)C)[C@H]2OC(C)=O)[C@](C)(O)C[C@@H](C)CN(C)[C@H](C)[C@H]2OC(=O)O[C@@]21C	128

In: Item CC[C@H]1OC(=O)[C@H](C)[C@@H](O)[C@H](C)[C@@H](O[C@@H]2O[C@H](C)C[C@H](N(C)C)[C@H]2OC(=O)Nc2ccccc2C)[C@](C)(O)C[C@@H](C)CN(C)[C@H](C)[C@H]2OC(=O)O[C@@]21C with Staphylococcus epidermidis - MIC?
Out: 16
